FYI, the data here is from paper PMC5540273.

- Test system: RSK1(Kin.Dom.2-C-terminal);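 further: KINOMEscan kinase panel screen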
- Construct: gene RPS6KA1
- stated.conditions: concentration: 1 μM, replicates: in singlicate; n = 1
The entries below come with measured %Inh values attached.
observed.property: %Inh (%)

Cc1cccc2c(-c3ccncn3)c(-c3ccc(F)cc3)nn12
50
COC(=O)C(NC(=O)NC1CCN(c2ccnc(Nc3ccc(F)cc3)n2)C1)c1ccccc1 (centres unmarked)
18
Cn1cncc1C(=O)NC1CCN(c2ccnc(Nc3ccc(F)cc3)n2)C1 (centres unmarked)
12
CNc1nc(-c2ccc3c(N)n[nH]c3c2)cc(N2C[C@@H](C(=O)NC3CCCCC3)OC[C@H]2C)n1
19
Nc1ncnc2occ(-c3ccc4c(c3)CCN4C(=O)Cc3cc(F)ccc3F)c12
0
COc1ccc(Nc2nccc(-c3ccc(NC(=O)c4cc5cc(F)ccc5[nH]4)cc3)n2)cc1
36
COC(=O)C(Cc1ccccc1)NC(=O)NC1CCN(c2ccnc(Nc3ccc(F)cc3)n2)C1 (centres unmarked)
0
FC(F)(F)c1ccccc1-c1cc(-c2c[nH]nc2-c2ccccn2)ccn1
13
O=C(Nc1n[nH]c2nc(-c3cccs3)c(Br)cc12)C1CCCC1
0
COc1ccc2cc(-c3nc(-c4ccccc4C(C)C)[nH]c3-c3ccncc3)ccc2c1
0
CSc1ccc(-c2nc3n(c2-c2ccncc2)CCC3)cc1
62
Cn1cnc2c(N)ncnc21
100
CS(=O)(=O)Cc1ccc(Nc2nccc(-c3c(-c4cccc(NC(=O)C5CCCCC5)c4)nn4ncccc34)n2)cc1
33
CN1c2ccc(-c3ccc(C(N)=O)cc3)cc2-c2[nH]ncc2S1(=O)=O
47
O=C(Nc1n[nH]c2nc(-c3cccs3)c(Br)cc12)C1CC1
0
CNCc1ccc2nc(NC(=O)c3ccc(C(C)(C)C)cc3)cn2c1
8
O=c1cc(N2CCOCC2)nc2n(Cc3ccccc3F)ccn12
0
Cn1cncc1-c1cc2c(Nc3ccc(OCc4ccccc4)cc3)ncnc2cn1
0
Cc1ccc(NC(=O)Nc2ccc(Cl)c(C(F)(F)F)c2)cc1-c1ccc(C(=O)Nc2ccncc2)cc1
3
CCn1c(-c2ccccc2)nc2cnccc21
0
Cc1ccc(NC(=O)Nc2ccccc2)cc1-c1ccc(C(=O)Nc2ccncc2)cc1
10
CC(=O)c1cccc(NC(=O)NC2CCN(c3ccnc(Nc4ccc(F)cc4)n3)C2)c1 (centres unmarked)
14
CC[C@@H]1CO[C@H](C(=O)Nc2ccccc2)CN1c1cc(-c2ccc3c(N)n[nH]c3c2)nc(NC)n1
31
COc1ccc(CSc2nnc(-c3ccc4ncsc4c3)o2)cc1C(F)(F)F
0
CS(=O)(=O)CCNCc1nc(-c2ccc3ncnc(Nc4ccc5c(cnn5Cc5ccccc5)c4)c3c2)cs1.Cl.Cl
0
CNc1nc(-c2ccc3c(N)n[nH]c3c2)cc(N2C[C@@H](C(=O)Nc3ccccc3)CC[C@H]2C)n1
0
COC(=O)c1cccc(NC(=O)NC2CCN(c3ccnc(Nc4ccc(OC)cc4)n3)C2)c1 (centres unmarked)
0
Cc1c(Cn2c(C)c(C)n3c(=O)cc(N4CCOCC4)nc23)cccc1C(F)(F)F
0
COc1ccc(Nc2nccc(NCCNC(=O)Nc3cc(C)ccc3C)n2)cc1
0
COc1cccc(NC(=O)Nc2ccc(C)c(-c3ccc(C(=O)Nc4ccncc4)cc3)c2)c1
0
CC(C)c1ccc(O)cc1Nc1ccnc2ccc(C(F)(F)F)cc12
0
COc1cc2ncnc(Nc3cccc(Br)c3)c2cc1OC.Cl
11
O=C(Nc1n[nH]c2cc(-c3ccsc3)ccc12)C1CC1
19
CC(=O)c1c(C)c2cnc(Nc3ccn(C)n3)nc2n(C2CCCC2)c1=O
4
COc1cccc(CNC(=O)NC2CCN(c3ccnc(Nc4ccc(F)cc4)n3)C2)c1 (centres unmarked)
0
